The values you see were collected from PubChem BioAssay AID1963978.

Here, each record is paired with measured viability, T/C data.
# System: 616215-338-R-J1-PDC spheroids with HUVEC/MSC, viability;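 further: spheroids exposed to agents for seven days before the viability read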
# Experiment description: Anticancer human tumor 616215-338-R-J1-PDC patient-derived colon adenocarcinoma cell line growth inhibition [PI3K]
# Test settings: second compound 0.316 µM; first compound 0.0316 µM; stronger effect = lower value
Property name: viability, T/C (%)

CCN1CCN(Cc2ccc(Nc3ncc(F)c(-c4cc(F)c5nc(C)n(C(C)C)c5c4)n3)nc2)CC1 + Cc1nc(NC(=O)N2CCCC2C(N)=O)sc1-c1ccnc(C(C)(C)C(F)(F)F)c1: 111
CCN1CCN(Cc2ccc(Nc3ncc(F)c(-c4cc(F)c5nc(C)n(C(C)C)c5c4)n3)nc2)CC1 + CC(Nc1ccc2c(c1)OCCn1cc(N3C(=O)OCC3C(F)F)nc1-2)C(N)=O: 105
Cn1ncnc1[C@H]1c2n[nH]c(=O)c3cc(F)cc(c23)N[C@@H]1c1ccc(F)cc1 + COc1c(OCCCN2CCOCC2)ccc2c3n(c(=NC(=O)c4cnc(N)nc4)nc12)CCN3: 37
CCN1CCN(Cc2ccc(Nc3ncc(F)c(-c4cc(F)c5nc(C)n(C(C)C)c5c4)n3)nc2)CC1 + COc1c(OCCCN2CCOCC2)ccc2c3n(c(=NC(=O)c4cnc(N)nc4)nc12)CCN3: 33
CC(C)NCC(C(=O)N1CCN(c2ncnc3c2C(C)CC3O)CC1)c1ccc(Cl)cc1 (stereo not given) + Cc1nc(NC(=O)N2CCCC2C(N)=O)sc1-c1ccnc(C(C)(C)C(F)(F)F)c1: 103
CNC(=O)c1ccc(N2C(=S)N(c3ccc(C#N)c(C(F)(F)F)c3)C(=O)C2(C)C)cc1F + CC(Nc1ncnc2nc[nH]c12)c1cc2cccc(Cl)c2c(=O)n1-c1ccccc1: 97.2
CC(=O)c1c(C)c2cnc(Nc3ccc(N4CCNCC4)cn3)nc2n(C2CCCC2)c1=O + Cc1nc(NC(=O)N2CCCC2C(N)=O)sc1-c1ccnc(C(C)(C)C(F)(F)F)c1: 104
CC1(C)CCC(CN2CCN(c3ccc(C(=O)NS(=O)(=O)c4ccc(NCC5CCOCC5)c([N+](=O)[O-])c4)c(Oc4cnc5[nH]ccc5c4)c3)CC2)=C(c2ccc(Cl)cc2)C1 + COc1c(OCCCN2CCOCC2)ccc2c3n(c(=NC(=O)c4cnc(N)nc4)nc12)CCN3: 47.4
CC(C)NCC(C(=O)N1CCN(c2ncnc3c2C(C)CC3O)CC1)c1ccc(Cl)cc1 (stereo not given) + CC(Nc1ncnc2nc[nH]c12)c1cc2cccc(Cl)c2c(=O)n1-c1ccccc1: 90.5
Cn1nccc1Nc1nccc(-c2ccn(C(CO)c3ccc(Cl)c(F)c3)c(=O)c2)n1 (stereo not given) + COc1c(OCCCN2CCOCC2)ccc2c3n(c(=NC(=O)c4cnc(N)nc4)nc12)CCN3: 38
CC1(C)CCC(Nc2ncc(C(F)(F)F)c(-c3c[nH]c4c(P(C)(C)=O)c(C#N)ccc34)n2)CN1 (stereo not given) + Cc1nc(NC(=O)N2CCCC2C(N)=O)sc1-c1ccnc(C(C)(C)C(F)(F)F)c1: 51.8
CC1(C)CCC(Nc2ncc(C(F)(F)F)c(-c3c[nH]c4c(P(C)(C)=O)c(C#N)ccc34)n2)CN1 (stereo not given) + CC(Nc1ccc2c(c1)OCCn1cc(N3C(=O)OCC3C(F)F)nc1-2)C(N)=O: 49.8
C=CC(=O)N1CCN(c2nc(=O)n(-c3c(C)ccnc3C(C)C)c3nc(-c4c(O)cccc4F)c(F)cc23)C(C)C1 (stereo not given) + Cc1nc(NC(=O)N2CCCC2C(N)=O)sc1-c1ccnc(C(C)(C)C(F)(F)F)c1: 108
C#Cc1c(F)ccc2cc(O)cc(-c3ncc4c(N5CC6CCC(C5)N6)nc(OCC56CCCN5CC(F)C6)nc4c3F)c12 (stereo not given) + COc1c(OCCCN2CCOCC2)ccc2c3n(c(=NC(=O)c4cnc(N)nc4)nc12)CCN3: 38.2
C#Cc1c(F)ccc2cc(O)cc(-c3ncc4c(N5CC6CCC(C5)N6)nc(OCC56CCCN5CC(F)C6)nc4c3F)c12 (stereo not given) + CC(Nc1ncnc2nc[nH]c12)c1cc2cccc(Cl)c2c(=O)n1-c1ccccc1: 111
CC(Cn1ccc(-c2ccc(C#N)c(Cl)c2)n1)NC(=O)c1cc(C(C)O)[nH]n1 (stereo not given) + COc1c(OCCCN2CCOCC2)ccc2c3n(c(=NC(=O)c4cnc(N)nc4)nc12)CCN3: 35.2
CC(C)n1nc(-c2ccc3oc(N)nc3c2)c2c(N)ncnc21 + Cc1nc(NC(=O)N2CCCC2C(N)=O)sc1-c1ccnc(C(C)(C)C(F)(F)F)c1: 111
C=CC(=O)N1CCN(c2nc(=O)n(-c3c(C)ccnc3C(C)C)c3nc(-c4c(O)cccc4F)c(F)cc23)C(C)C1 (stereo not given) + COc1c(OCCCN2CCOCC2)ccc2c3n(c(=NC(=O)c4cnc(N)nc4)nc12)CCN3: 52.7
CC1(C)CCC(CN2CCN(c3ccc(C(=O)NS(=O)(=O)c4ccc(NCC5CCOCC5)c([N+](=O)[O-])c4)c(Oc4cnc5[nH]ccc5c4)c3)CC2)=C(c2ccc(Cl)cc2)C1 + CC(Nc1ccc2c(c1)OCCn1cc(N3C(=O)OCC3C(F)F)nc1-2)C(N)=O: 98.5
CCN1CCN(Cc2ccc(Nc3ncc(F)c(-c4cc(F)c5nc(C)n(C(C)C)c5c4)n3)nc2)CC1 + CC(Nc1ncnc2nc[nH]c12)c1cc2cccc(Cl)c2c(=O)n1-c1ccccc1: 98.2
